assay_target: T1, mouse Ig1,2 TrkA (recombinant D4-D5 domain of murine TrkA receptor) (mouse, UniProt Q3UFB7 193-413)
T1 construct: also called mTrkA Ig1,2
T1 sequence (Q3UFB7 other isoform, or with tags, fused parts or gaps limits assumed): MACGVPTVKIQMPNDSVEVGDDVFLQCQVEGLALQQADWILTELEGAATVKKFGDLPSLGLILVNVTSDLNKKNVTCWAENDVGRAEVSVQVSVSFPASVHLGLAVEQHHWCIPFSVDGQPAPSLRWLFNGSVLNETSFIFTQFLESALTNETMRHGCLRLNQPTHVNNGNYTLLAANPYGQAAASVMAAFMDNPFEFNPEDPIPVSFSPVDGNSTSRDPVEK
assay_overview: SPR (Biacore X-100); scFv immobilised on CM5 chip, mouse Ig1,2 TrkA injected
pKd: −log10 of the molar value.
pKd listing for selected binders.
reported_metric: pKd

binder | data_value
anti-TrkA scFv CRB0084 (scFv, From hSPLINT_09 selection) scFv: QPVLTQPPSVSVAPRQTATITCGGNYIGSKSVHWYQQKPGQDPVLVVNDDSDRPSGIPERFSGSNSANTATLTISGVEAGDEADYYCQVWDSSTEPVVFGGGTKLTVLSGGSTSGSGKPGSGEGSSGTQVQLQQWGAGLLRPSETLSLTCTVSGGSFSDSYWTWIRQSPGKGLEWIGENNHRGSTNYSPTLRSRLSISIDSSKNQFSLKLSSVTAADTAVYYCARVPYRLRSRIFDVWGQGTMVTVSS | 8.66
anti-TrkA scFv CRB0036 (scFv, From mSPLINT selection) scFv: DIVMTQAAPSVPVTPGESVSISCRSSKSLLHSSGITSLYWYLQRPGQSPQLPIYRMSSLASGVPDRFSVSGSGTAFTLRISRVEAEDVGVYYCMQHLEYPLTFGAGTKLELKRSGGSTSGSGKPGSGEGSSGTQVQLQQSGAELLKPGASVKISCKATGYTFSNYWIEWVKQRPGHGLEWIGEILPGSGSAHYSEKFKDKATFTADTSSNTAYMQLSSLTSEDSAVYFCTRSPPNPGYWGQGTSVTVSS | 8.96
anti-TrkA scFv CRB0072 (scFv, From hSPLINT_09 selection) scFv: DIQMTQSPISLSATVGDRVTITCRASQSIGRYLNWYQQKPGKAPKLLIYGASSLESGVPSRFSGSGSGTVFTLTISGLQPEDFATYCCQQSHSTAWTFGQGTKVEIKSGGSTSGSGKPGSGEGSSGTEVQLVETGGGLVQPGSSLRLSCATSGFTFINYGVHWVRQPPGKGLEWVASIWYEGSNEKYADSVKGRFTISRDNSRYTLHLQLNSLRAEDTADYYCVRDRGTGDYRNSRFYYGMDVWGQGTTVTVSS | 7.77
anti-TrkA scFv CRB0089 (scFv, From hSPLINT_09 selection) scFv: QTVVTQEPSVSGAPGQRVTISCTGSSSIIGAGYEVHWYQHLPGTAPKLLIYDSINRPSGVPDRFSGSKSGTSASLAITGLQAEDEADYYCQSSAIFGGGTKLTVLSGGSTSGSGKPGSGEGSSGTQVQLQESGPGLVKPSQTLSLTCAISGDSVSSNSAAWNWIRQSPSRGLEWLGRTFHRSRWYNEYPVSVRSRITINPDTSNNQFTLQLNSVTPDDTAVYYCARAPVAGLTFDIWGQGTMVTVSS | 7.85
anti-TrkA scFv CRB0088 (scFv, From hSPLINT_09 selection) scFv: QPVLTQSPPASASLGASVKLTCTLSSGHSSYAIAWHQQQPEKGPRYLMKVNSDGSHNKGDGIPDRFSGSRSGAERYLTISSLHSEDEADYYCQTWGAGGVVFGGGTKLTVLSGGSTSGSGKPGSGEGSSGTEVQLLESGGGLVQPGGSLRLSCAASGFTFSDHYMDWVRQAPGKGLEWVGRIRNKANSYTTEYAASVKGRFTISRDDSKKTLYLQMTSLKTDDTALYYCARDLGASDAFDLWGQGTMVTVSS | 7.41
